Measurement target: STING (Homo sapiens, UniProt Q86WV6, G230A/H232R/R293Q/R71H)
Sequence (Q86WV6 whole entry R71H/G230A/H232R/R293Q): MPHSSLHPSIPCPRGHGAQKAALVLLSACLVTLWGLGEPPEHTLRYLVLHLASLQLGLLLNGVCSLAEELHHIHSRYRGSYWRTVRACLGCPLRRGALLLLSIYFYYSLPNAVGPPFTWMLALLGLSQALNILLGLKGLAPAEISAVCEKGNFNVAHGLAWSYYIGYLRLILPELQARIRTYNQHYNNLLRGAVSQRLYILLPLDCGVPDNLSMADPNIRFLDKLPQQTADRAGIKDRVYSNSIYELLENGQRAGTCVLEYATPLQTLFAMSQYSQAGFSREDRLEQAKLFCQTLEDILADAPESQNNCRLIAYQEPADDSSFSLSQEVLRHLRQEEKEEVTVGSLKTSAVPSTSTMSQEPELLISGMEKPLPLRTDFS
Experimental protocol: STING reporter assay: luciferase reporter activity in THP1-Dual KO-IFNAR2 cells stimulated with 2'3'cGAMP
Particulars: 2′3′cGAMP 15 μM final, 24h, read-out: hSTING: EC50
Here the recorded EC50 is given for each entry.
Endpoint label: EC50

{"Compound": "O=C(Nc1c[nH]c2cc(F)c(F)cc12)C(=O)NC1CCN(Cc2ccccc2)C2(CCCCC2)C1 (centres unmarked)", "Endpoint label": "EC50", "Data value": "1000 to 5000 nM"}
{"Compound": "O=C(NCC1(c2ccccc2)CC1)C(=O)Nc1c[nH]c2cc(F)c(F)cc12", "Endpoint label": "EC50", "Data value": "200 to 1000 nM"}
{"Compound": "O=C(Nc1c[nH]c2cc(F)c(F)cc12)C(=O)NC(c1ccccc1)C(F)(F)F (centres unmarked) [Compound 312]", "Endpoint label": "EC50", "Data value": "200 to 1000 nM"}
{"Compound": "Cc1ccc(O[C@H]2C[C@H](NC(=O)C(=O)Nc3c[nH]c4cc(F)c(F)cc34)C2)cn1", "Endpoint label": "EC50", "Data value": "200 to 1000 nM"}
{"Compound": "CC(CN(C)c1ccccc1)NC(=O)C(=O)Nc1c[nH]c2cc(F)c(F)cc12 (centres unmarked) [Compound 328]", "Endpoint label": "EC50", "Data value": "200 to 1000 nM"}

The measured values listed here are drawn from patent US20230021448A1.
